The values you see were collected from ChEMBL document CHEMBL3301472.

Assay: MMV: MTT Cytotoxicity Assay Day 7 pi of Assay #10 (NO washout), U87-CD4-CCR5 cells, % cell death @ 5mM compound
Type: toxicity, cell-based
Conditions: human, u87-cd4-ccr5, 5000 µM
Criterion: % Cell Death strictly less than 10. Met: Fulfilled. Not met: Not fulfilled.

Say whether its % Cell Death is strictly beneath 10. Entry: `COc1cc(-c2nc(-c3ccc(Sc4ccccc4)cc3)c(-c3ccccc3)[nH]2)cc(OC)c1O`
Not fulfilled

====

Experiment: MMV: MTT Cytotoxicity Assay Day 3 pi, U87-CD4-CXCR4 cells, % cell death @ 5mM compound
Format: toxicity, cell-based
Details: human, u87-cd4-cxcr4, 5000 µM
The entries below come with measured % Cell Death values attached.
// no unit, no text: just the number

{"columns": ["Compound", "Quantitative result"],
 "data": [
  ["O=C(Nc1ccccc1O)c1ccc(-c2ccc(Cl)cc2Cl)o1", -23],
  ["COc1cccc(Cn2c(Oc3ccccc3)nc3c2c(=O)n(C)c(=O)n3C)c1", 15],
  ["O=C(NCc1ccco1)C1CCN(S(=O)(=O)c2ccc(Cl)cc2)CC1", 12]
]}

I am curious: what % Cell Death value has been reported for `CCOc1cccc(C(=O)Nc2ccc(-c3nc4ccccc4[nH]3)cc2)c1` ?
46

I am curious: what % Cell Death value has been reported for `Cc1nc2ccccc2c(O)c1CC=C(Cl)Cl` ?
30

I am curious: what % Cell Death value has been reported for `Fc1ccc2[nH]c3c(NCCCN4CCOCC4)ncnc3c2c1` ?
36

I am curious: what % Cell Death value has been reported for `Cc1cc(N2CCN(C3CCCC3)CC2)n2c(nc3ccccc32)c1C#N` ?
44

I am curious: what % Cell Death value has been reported for `COc1ccc(C2N(C)c3ccccc3N2C)cc1` ?
-15
